The reported numbers originate from ChEMBL document CHEMBL5291721.

Target: Estrogen receptor (Homo sapiens, UniProt P03372); further: assay procedure not described here
Sequence (P03372 whole entry): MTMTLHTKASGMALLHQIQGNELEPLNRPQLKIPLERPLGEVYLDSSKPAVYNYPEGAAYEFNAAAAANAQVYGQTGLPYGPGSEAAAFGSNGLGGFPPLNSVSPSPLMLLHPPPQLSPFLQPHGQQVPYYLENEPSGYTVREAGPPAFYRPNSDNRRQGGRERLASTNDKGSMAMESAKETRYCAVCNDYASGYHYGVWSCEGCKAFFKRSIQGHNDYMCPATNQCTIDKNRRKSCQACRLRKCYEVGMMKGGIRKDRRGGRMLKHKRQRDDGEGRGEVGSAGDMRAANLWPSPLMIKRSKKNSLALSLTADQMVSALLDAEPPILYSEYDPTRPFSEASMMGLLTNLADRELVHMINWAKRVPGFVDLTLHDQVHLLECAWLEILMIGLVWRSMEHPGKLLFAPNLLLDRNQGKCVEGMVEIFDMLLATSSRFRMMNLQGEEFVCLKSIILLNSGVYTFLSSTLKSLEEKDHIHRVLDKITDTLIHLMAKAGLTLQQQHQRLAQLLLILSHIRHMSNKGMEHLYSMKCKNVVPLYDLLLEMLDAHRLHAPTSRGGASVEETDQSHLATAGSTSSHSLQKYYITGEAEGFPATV
Assay type: functional
Readout Type: AC50

Compound: CN1CCCC(n2nc(Cc3ccc(Cl)cc3)c3ccccc3c2=O)CC1 (centres undefined) [AZELASTINE]
Result: > 30 µM

Compound: CC(N)Cc1ccccc1 (centres undefined) [AMPHETAMINE]
Result: > 30 µM

Compound: COC(=O)[C@@H]1CC2=CC(=O)CC[C@]2(C)[C@@]23O[C@@H]2C[C@@]2(C)[C@@H](CC[C@@]24CCC(=O)O4)[C@H]13 [EPLERENONE]
Result: > 30 µM

Compound: CC(=O)c1ccc2c(c1)N(CCCN1CCN(CCO)CC1)c1ccccc1S2 [ACETOPHENAZINE]
Result: 13 µM

Compound: OCc1cc([C@@H](O)CNCCCCCCOCCOCc2c(Cl)cccc2Cl)ccc1O [VILANTEROL]
Result: > 30 µM

Compound: CO/N=C(\C(=O)N[C@@H]1C(=O)N2C(C(=O)[O-])=C(C[N+]3(C)CCCC3)CS[C@H]12)c1csc(N)n1
Result: > 300 µM

Compound: CC(C)NNC(=O)c1ccncc1 [IPRONIAZID]
Result: > 30 µM

Compound: [H]/N=C(/N)c1ccc(NCc2nc3cc(C(=O)N(CCC(=O)O)c4ccccn4)ccc3n2C)cc1 [DABIGATRAN]
Result: > 30 µM

Compound: CC[C@H](C)C(=O)O[C@H]1C[C@H](O)C=C2C=C[C@H](C)[C@H](CC[C@@H](O)C[C@@H](O)CC(=O)O)[C@H]21 [PRAVASTATIN]
Result: > 30 µM

====

Biological target: 5-hydroxytryptamine receptor 2B (Homo sapiens); further: assay procedure not described here
Sequence (P41595 whole entry): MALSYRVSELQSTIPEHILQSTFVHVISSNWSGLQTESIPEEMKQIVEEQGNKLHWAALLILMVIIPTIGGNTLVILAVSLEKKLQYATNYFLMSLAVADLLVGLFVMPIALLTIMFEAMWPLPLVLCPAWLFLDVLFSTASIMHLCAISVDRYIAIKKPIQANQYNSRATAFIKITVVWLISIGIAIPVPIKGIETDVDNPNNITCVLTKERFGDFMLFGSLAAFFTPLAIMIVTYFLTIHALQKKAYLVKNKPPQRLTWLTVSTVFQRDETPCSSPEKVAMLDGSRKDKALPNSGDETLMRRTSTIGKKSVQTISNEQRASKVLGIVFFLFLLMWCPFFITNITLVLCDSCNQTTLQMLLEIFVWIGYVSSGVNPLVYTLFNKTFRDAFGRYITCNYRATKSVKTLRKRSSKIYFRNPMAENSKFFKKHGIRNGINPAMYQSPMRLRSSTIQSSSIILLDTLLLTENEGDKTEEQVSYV
Assay type: functional, cell-based
The compounds listed here are annotated with their AC50.

Compound: O=C(C[S+]([O-])C(c1ccccc1)c1ccccc1)NO (stereo not given)
AC50: > 30 µM

Compound: CCOc1cc(N)c([N+](=O)[O-])cc1C(=O)NC1CCN(CC2CC=CCC2)CC1 (stereo not given) [CINITAPRIDE]
AC50: 0.19 µM

Compound: O=C(O)CCCc1ccccc1 [PHENYLBUTANOIC ACID]
AC50: > 30 µM

Compound: COc1ccc(C(=O)NCc2ccc(OCCN(C)C)cc2)cc1OC [ITOPRIDE]
AC50: > 30 µM

Compound: O=P(O)(O)C(O)(Cc1cccnc1)P(=O)(O)O [RISEDRONIC ACID]
AC50: > 30 µM

Compound: Cc1cc2c(OCC(CNC(C)(C)C)OC(=O)c3ccccc3)cccc2[nH]1 (stereo not given) [BOPINDOLOL]
AC50: 19 µM

Compound: CN1C(=O)CC(C)(c2ccccc2)C1=O (stereo not given) [METHSUXIMIDE]
AC50: > 10 µM

Compound: CCCCN1CCCCC1C(=O)Nc1c(C)cccc1C (stereo not given) [BUPIVACAINE]
AC50: > 30 µM

Compound: CC(C(=O)O)c1ccc(N2CC=CC2)c(Cl)c1 (stereo not given) [PIRPROFEN]
AC50: > 10 µM

Compound: CN(CCOc1ccc(NS(C)(=O)=O)cc1)CCc1ccc(NS(C)(=O)=O)cc1 [DOFETILIDE]
AC50: > 30 µM
